- System: Hepatitis C virus
- test-description: Antiviral activity against HCV genotype 1b in presence of 10% FBS by real time PCR analysis
- Format: functional, organism-based, Hepacivirus hominis
measurement-name: pEC50
Entry type: numeric. Quantity: pEC50, the -log10 of concentration in molar units.

So what does the record say about pEC50 for COC(=O)N[C@H](C(=O)N1CCC[C@H]1c1ncc(-c2ccc3oc(-c4ccc(-c5c[nH]c([C@@H]6C[C@@H]7CN6C(=O)[C@H](C(C)C)NC(=O)OCCCCCCO7)n5)cc4)cc3c2)[nH]1)C(C)C ?
9.70

----------
- Test system: Hepatitis C virus
- test-description: Antiviral activity against HCV genotype 1b by real time PCR analysis
- Assay type: functional, organism-based, Hepacivirus hominis
pEC50: −log10 of the molar value.
Label rule, in plain words: pEC50 of 10 and up is rule met, under 10 is rule not met.

Decide: pEC50 of COC(=O)N[C@H](C(=O)N1CCC[C@H]1c1ncc(-c2ccc(-c3ccc4c(ccc5nc([C@@H]6[C@H]7CC[C@H](C7)N6C(=O)[C@@H](NC(=O)OC)C(C)C)[nH]c54)c3)cc2)[nH]1)C(C)C >= 10?
rule met

Decide: pEC50 of COC(=O)N[C@H](C(=O)N1CCC[C@H]1c1ncc(-c2ccc3oc(-c4ccc(-c5c[nH]c([C@@H]6C[C@@H]7CN6C(=O)[C@H](C(C)C)NC(=O)OC/C=C/CCCO7)n5)cc4)cc3c2)[nH]1)C(C)C >= 10?
rule met

Decide: pEC50 of COC(=O)N[C@H](C(=O)N1C[C@H](OC)C[C@H]1c1ncc(-c2ccc(-c3ccc4c(ccc5nc([C@@H]6[C@H]7CC[C@H](C7)N6C(=O)[C@@H](NC(=O)OC)C(C)C)[nH]c54)c3)cc2)[nH]1)C(C)C >= 10?
rule met

Decide: pEC50 of COC(=O)N[C@H](C(=O)N1CCC[C@H]1c1ncc(-c2ccc(-c3ccc4c(ccc5nc([C@@H]6CCCN6C(=O)[C@@H](NC(=O)OC)C(C)C)[nH]c54)c3)cc2O)[nH]1)C(C)C >= 10?
rule met

Decide: pEC50 of COCCOC(=O)N[C@H](C(=O)N1CCC[C@H]1c1ncc(-c2ccc(-c3ccc4c(c3)c(Cl)cc3nc([C@@H]5CCCN5C(=O)[C@@H](NC(=O)OCCOC)C(C)C)[nH]c34)cc2)[nH]1)C(C)C >= 10?
rule not met

Decide: pEC50 of COC(=O)N[C@H](C(=O)N1CCC[C@H]1c1ncc(-c2ccc(-c3ccc4c(ccc5nc([C@@H]6CCCN6C(=O)[C@@H](NC(=O)OC)C(C)C)[nH]c54)c3)cc2OCCN2CCOCC2)[nH]1)C(C)C >= 10?
rule not met

Decide: pEC50 of COC(=O)N[C@H](C(=O)N1CCC[C@H]1c1ncc(-c2ccc(-c3ccc4c(c3)c(Cl)cc3nc([C@@H]5CCCN5C(=O)[C@@H](NC(=O)OC)C(C)C)[nH]c34)cc2)[nH]1)C(C)C >= 10?
rule met

Decide: pEC50 of COC(=O)N[C@H](C(=O)N1CCC[C@H]1c1nc2ccc3cc(-c4ccc5c(c4)OCCCCCCOC(=O)N[C@@H](C(C)C)C(=O)N4CCC[C@H]4c4ncc-5[nH]4)ccc3c2[nH]1)C(C)C >= 10?
rule not met

Decide: pEC50 of COC(=O)N[C@H](C(=O)N1CCC[C@H]1c1nc2ccc3cc(-c4ccc(-c5c[nH]c([C@@H]6C[C@@H]7CN6C(=O)[C@H](C(C)C)NC(=O)OCCCCCCO7)n5)cc4)ccc3c2[nH]1)C(C)C >= 10?
rule met

Decide: pEC50 of COC(=O)N[C@H](C(=O)N1CCC[C@H]1c1nc2ccc3cc(-c4ccc(-c5c[nH]c([C@@H]6C[C@@H]7CN6C(=O)[C@H](C(C)C)NC(=O)OCCC/C=C/CO7)n5)cc4)ccc3c2[nH]1)C(C)C >= 10?
rule met

Decide: pEC50 of COC(=O)N[C@@H]1C[C@@H](c2ncc(-c3ccc(-c4ccc5c(ccc6nc([C@@H]7CCCN7C(=O)[C@@H](NC(=O)OC)C(C)C)[nH]c65)c4)cc3)[nH]2)N(C(=O)[C@@H](NC(=O)OC)C(C)C)C1 >= 10?
rule met

Decide: pEC50 of COC(=O)N[C@H](C(=O)N1CCC[C@H]1c1ncc(-c2ccc(-c3ccc4c(ccc5nc([C@@H]6CCCN6C(=O)[C@@H](NC(=O)OC)C(C)C)[nH]c54)c3)cc2C2CC2)[nH]1)C(C)C >= 10?
rule met

Decide: pEC50 of CC(C)OC(=O)N[C@H](C(=O)N1CCC[C@H]1c1ncc(-c2ccc(-c3ccc4c(c3)c(Cl)cc3nc([C@@H]5CCCN5C(=O)[C@@H](NC(=O)OC(C)C)C(C)C)[nH]c34)cc2)[nH]1)C(C)C >= 10?
rule not met

Decide: pEC50 of COCCO[C@@H]1C[C@@H](c2ncc(-c3ccc(-c4ccc5c(ccc6nc([C@@H]7[C@H]8CC[C@H](C8)N7C(=O)[C@@H](NC(=O)OC)C(C)C)[nH]c65)c4)cc3)[nH]2)N(C(=O)[C@@H](NC(=O)OC)C(C)C)C1 >= 10?
rule met

Decide: pEC50 of CC(C)[C@H](NC(=O)OC1(C)CC1)C(=O)N1CCC[C@H]1c1ncc(-c2ccc(-c3ccc4c(c3)c(Cl)cc3nc([C@@H]5CCCN5C(=O)[C@@H](NC(=O)OC5(C)CC5)C(C)C)[nH]c34)cc2)[nH]1 >= 10?
rule not met

Decide: pEC50 of COC(=O)N[C@H](C(=O)N1C[C@H](O)C[C@H]1c1ncc(-c2ccc(-c3ccc4c(ccc5nc([C@@H]6[C@H]7CC[C@H](C7)N6C(=O)[C@@H](NC(=O)OC)C(C)C)[nH]c54)c3)cc2)[nH]1)C(C)C >= 10?
rule met

Decide: pEC50 of COC(=O)N[C@H](C(=O)N1C[C@H](N)C[C@H]1c1ncc(-c2ccc(-c3ccc4c(ccc5nc([C@@H]6CCCN6C(=O)[C@@H](NC(=O)OC)C(C)C)[nH]c54)c3)cc2)[nH]1)C(C)C >= 10?
rule met

Decide: pEC50 of COC(=O)N[C@H](C(=O)N1CCC[C@H]1c1nc2ccc3cc(-c4ccc(-c5cnc([C@@H]6CC[C@H]7C(=O)N[C@@H](C(C)C)C(=O)N76)[nH]5)cc4)ccc3c2[nH]1)C(C)C >= 10?
rule met

Decide: pEC50 of COC(=O)N[C@H](C(=O)N1C[C@H](NC(C)=O)C[C@H]1c1ncc(-c2ccc(-c3ccc4c(ccc5nc([C@@H]6CCCN6C(=O)[C@@H](NC(=O)OC)C(C)C)[nH]c54)c3)cc2)[nH]1)C(C)C >= 10?
rule met

Decide: pEC50 of COC(=O)N[C@H](C(=O)N1CCC[C@H]1c1ncc(-c2ccc(-c3ccc4c(ccc5nc([C@@H]6CCCN6C(=O)[C@@H](NC(=O)OC)C(C)C)[nH]c54)c3)cc2C)[nH]1)C(C)C >= 10?
rule met
